Property: inhibition; scope: individual compounds
Test system: Receptor-type tyrosine-protein kinase FLT3 (Homo sapiens), P36888 [UNDEFINED MUTATION]
Sequence (P36888 whole entry, looked up, change not shown): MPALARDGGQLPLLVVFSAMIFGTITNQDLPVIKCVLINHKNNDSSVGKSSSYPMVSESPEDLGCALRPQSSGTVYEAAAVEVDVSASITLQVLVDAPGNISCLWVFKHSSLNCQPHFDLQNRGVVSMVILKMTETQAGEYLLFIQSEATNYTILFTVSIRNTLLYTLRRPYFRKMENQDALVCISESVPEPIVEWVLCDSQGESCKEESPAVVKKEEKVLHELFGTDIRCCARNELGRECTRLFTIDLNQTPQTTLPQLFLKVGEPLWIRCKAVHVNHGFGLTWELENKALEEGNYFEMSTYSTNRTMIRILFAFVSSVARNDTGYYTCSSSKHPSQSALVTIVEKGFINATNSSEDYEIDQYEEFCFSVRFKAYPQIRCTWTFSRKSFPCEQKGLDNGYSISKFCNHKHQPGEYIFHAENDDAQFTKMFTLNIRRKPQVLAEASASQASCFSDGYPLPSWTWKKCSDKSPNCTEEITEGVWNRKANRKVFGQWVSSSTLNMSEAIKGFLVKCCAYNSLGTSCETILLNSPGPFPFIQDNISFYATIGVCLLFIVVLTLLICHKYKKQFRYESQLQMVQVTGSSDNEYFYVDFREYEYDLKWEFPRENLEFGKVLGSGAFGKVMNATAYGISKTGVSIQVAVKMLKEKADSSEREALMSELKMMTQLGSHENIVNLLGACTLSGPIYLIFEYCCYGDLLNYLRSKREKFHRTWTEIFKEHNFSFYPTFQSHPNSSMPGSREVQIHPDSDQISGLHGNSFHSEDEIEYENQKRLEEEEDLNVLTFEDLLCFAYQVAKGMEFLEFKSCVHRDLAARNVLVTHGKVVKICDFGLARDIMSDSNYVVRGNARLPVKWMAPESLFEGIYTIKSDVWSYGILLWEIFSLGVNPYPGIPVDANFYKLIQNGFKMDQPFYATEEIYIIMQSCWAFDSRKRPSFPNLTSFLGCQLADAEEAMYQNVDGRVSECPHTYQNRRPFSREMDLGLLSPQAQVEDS
Assay: Inhibition of FLT3 ITD mutant (unknown origin) using TAMRA-Src- tide as substrate at 1.25 uM after 1 hr by fluorescence polarization assay relative to control
Hi! Could you send only the number? It should be in %, unit omitted.

Ask | Find the recorded inhibition belonging to COC(=O)[C@H](Cc1ccccc1)NC(=O)c1c(C)[nH]c(/C=C2\C(=O)Nc3ccc(C(=O)N[C@@H](Cc4ccccc4)C(=O)O)cc32)c1C and report it.
Reply | 94.8

Ask | Which inhibition value is on record for COC(=O)CC[C@@H](NC(=O)c1c(C)[nH]c(/C=C2\C(=O)Nc3ccc(C(=O)N[C@H](Cc4ccccc4)C(=O)O)cc32)c1C)C(=O)OC ?
Reply | 39.2

Ask | Form field: reported inhibition of COC(=O)CC[C@@H](NC(=O)c1c(C)[nH]c(/C=C2\C(=O)Nc3ccc(C(=O)N[C@@H](Cc4ccccc4)C(=O)O)cc32)c1C)C(=O)OC
Reply | 90.9

---

Parameter solubility at 24 h, 120 µM: see the listing below.
Assay: Aqueous solubility in pH 5.5 phosphate buffer at 120 uM after 24 hrs by HPLC method
Assay type: physicochemical
Conditions: phosphate buffer, pH 5.5

Some solved entries appear below for comparison.
molecule=COC(=O)CC[C@H](NC(=O)c1ccc2c(c1)/C(=C/c1[nH]c(C)c(C(=O)N[C@@H](Cc3ccccc3)C(=O)O)c1C)C(=O)N2)C(=O)OC valuekind="solubility at 24 h, 120 µM" reported="30 µM"
molecule=CCOC(=O)c1c(C)[nH]c(/C=C2\C(=O)Nc3ccc(C(=O)N[C@@H](CCC(=O)OC)C(=O)OC)cc32)c1C valuekind="solubility at 24 h, 120 µM" reported="< 1 µM"

Alright, here's another molecule for you.
Ask | I would be grateful if you could share the reported solubility at 24 h, 120 µM for CCN(CC)CCNC(=O)c1c(C)[nH]c(/C=C2\C(=O)Nc3ccc(F)cc32)c1C .
Reply | ≥ 120 µM

---

System: Receptor-type tyrosine-protein kinase FLT3 (Homo sapiens), P36888 [UNDEFINED MUTATION]
Test: Inhibition of FLT3 ITD mutant (unknown origin) using TAMRA-Src- tide as substrate at 1.25 uM after 1 hr by fluorescence polarization assay relative to control
Recorded inhibition values for a group of molecules are listed next.
The figure you give is taken to be in %; do not add the unit.

molecule=COC(=O)CC[C@H](NC(=O)c1c(C)[nH]c(/C=C2\C(=O)Nc3ccc(C(=O)N[C@@H](Cc4ccccc4)C(=O)O)cc32)c1C)C(=O)OC systemtested="Receptor-type tyrosine-protein kinase FLT3 (Homo sapiens), P36888 [UNDEFINED MUTATION]" valuekind=inhibition unitannotation=% reported=98.7
molecule=Cc1[nH]c(/C=C2\C(=O)Nc3ccc(C(=O)N[C@H](Cc4ccccc4)C(=O)O)cc32)c(C)c1C(=O)O systemtested="Receptor-type tyrosine-protein kinase FLT3 (Homo sapiens), P36888 [UNDEFINED MUTATION]" valuekind=inhibition unitannotation=% reported=87.1
molecule=COC(=O)CC[C@@H](NC(=O)c1ccc2c(c1)/C(=C/c1[nH]c(C)c(C(=O)N[C@H](Cc3ccccc3)C(=O)OC)c1C)C(=O)N2)C(=O)OC systemtested="Receptor-type tyrosine-protein kinase FLT3 (Homo sapiens), P36888 [UNDEFINED MUTATION]" valuekind=inhibition unitannotation=% reported=12.1
molecule=COC(=O)CC[C@@H](NC(=O)c1c(C)[nH]c(/C=C2\C(=O)Nc3ccc(C(=O)O)cc32)c1C)C(=O)OC systemtested="Receptor-type tyrosine-protein kinase FLT3 (Homo sapiens), P36888 [UNDEFINED MUTATION]" valuekind=inhibition unitannotation=% reported=93.5
molecule=Cc1[nH]c(/C=C2\C(=O)Nc3ccc(C(=O)N[C@@H](Cc4ccccc4)C(=O)O)cc32)c(C)c1C(=O)N[C@H](Cc1ccccc1)C(=O)O systemtested="Receptor-type tyrosine-protein kinase FLT3 (Homo sapiens), P36888 [UNDEFINED MUTATION]" valuekind=inhibition unitannotation=% reported=104

Ask | If you can, please state the reported inhibition value of CCN(CC)CCNC(=O)c1c(C)[nH]c(/C=C2\C(=O)Nc3ccc(F)cc32)c1C [SUNITINIB] .
Reply | 92.3

Ask | For the molecule COC(=O)c1ccc2c(c1)/C(=C/c1[nH]c(C)c(C(=O)N[C@@H](Cc3ccccc3)C(=O)OC)c1C)C(=O)N2 , what inhibition is on record?
Reply | 45.7
